Target: Bevacizumab (Homo sapiens)
Construct: fused on or other part: humanised anti-VEGF-A VH domain N-terminal of the gamma-1 constant region (engineered, no UniProt entry)
Test protocol: Microtiter plate chromatography of resins, Bevacizumab whole IgG (bound, yield, selectivity)
Assay type: binding, humanized
Condition description: mass of whole IgG Bevacizumab eluted / mass injected
Readout label: Bevacizumab IgG Yield (%)

- COc1ccc(NC(=O)c2nn(CCO)c3ccccc23)cc1C(=O)NCCCN: 97
- COc1ccc(NC(=O)c2cncc(-c3ccco3)c2)cc1C(=O)NCCCN: 94
- COc1ccc(NC(=O)c2nccc3ccccc23)cc1C(=O)NCCCN: 96
- COc1ccc(NC(=O)c2cn3ncccc3n2)cc1C(=O)NCCOCCOCC(=O)NCCCC[C@H](NC(=O)COCCOCCNC(=O)c1cc(NC(=O)c2cn3ncccc3n2)ccc1OC)C(=O)NCCCN: 100

====

Target: Bevacizumab (Homo sapiens, UniProt P01857)
Construct: fused on or other part: humanised anti-VEGF-A VH domain N-terminal of the gamma-1 constant region (engineered, no UniProt entry)
Test protocol: Microtiter plate chromatography of resins, Bevacizumab whole IgG (bound, yield, selectivity)
Assay type: binding, humanized
Condition description: fraction of whole IgG Bevacizumab bound to resin
# reported Bevacizumab IgG Bound (%); entries follow
Readout label: Bevacizumab IgG Bound (%)

- COc1ccc(NC(=O)c2cc(-c3ccccc3)n(C)n2)cc1C(=O)NCCCN: 99
- NCCCNC(=O)c1cccc(C(=O)Nc2cc(-c3ccco3)[nH]n2)c1: 99
- COc1ccc(NC(=O)c2cn(C)c3ccccc23)cc1C(=O)NCCCN: 100
- COc1ccc(NC(=O)c2cn3cccnc3n2)cc1C(=O)NCCCN: 100
- COc1ccc(NC(=O)c2cn3ccccc3n2)cc1C(=O)NCCCN: 100
- COc1ccc(NC(=O)c2cn3ccsc3n2)cc1C(=O)NCCCC[C@H](NC(=O)c1cc(NC(=O)c2cn3ccsc3n2)ccc1OC)C(=O)NCCCN: 100
- COc1ccc(NC(=O)c2nn(CC(O)CO)c3ccccc23)cc1C(=O)NCCCN (racemic): 100
- COc1ccc(NC(=O)c2cncc(C3CC3)c2)cc1C(=O)NCCCN: 100

====

Target: Bevacizumab (Homo sapiens)
Construct: fused on or other part: humanised anti-VEGF-A VH domain N-terminal of the gamma-1 constant region (engineered, no UniProt entry)
Test protocol: Microtiter plate chromatography of resins, Bevacizumab whole IgG (bound, yield, selectivity)
Assay type: binding, humanized
Condition description: mass of whole IgG Bevacizumab eluted / mass injected
Procedure: Resins were assessed in packed mode by microtiter plate chromatography. For each column, approximately 30 μl of resin were transferred to a 384-well filter plate and sealed with appropriate top frits. Columns were equilibrated with 6.7 column volumes (cv) of phosphate buffered saline (0.15 M NaCl, 20 mM sodium phosphate, pH 7.3; PBS) prior to injection. […] Effluent fractions were collected in 384-well plates and concentrations of protein analyzed by Bradford assay. […]
Readout label: Bevacizumab IgG Yield (%)

* COc1ccc(NC(=O)c2cc(-c3cc(Br)cs3)n(C)n2)cc1C(=O)NCCCN | 96
* COc1ccc(NC(=O)c2cn3ccsc3n2)cc1C(=O)NCCCC[C@H](NC(=O)c1cc(NC(=O)c2cn3ccsc3n2)ccc1OC)C(=O)NCCCN | 88
* COc1ccc(NC(=O)c2cn3ccsc3n2)cc1C(=O)NCCOCCOCC(=O)NCCCC[C@H](NC(=O)COCCOCCNC(=O)c1cc(NC(=O)c2cn3ccsc3n2)ccc1OC)C(=O)NCCCN | 92
* COc1ccc(NC(=O)c2cc3ccccn3n2)cc1C(=O)NCCCN | 82
* COc1ccc(NC(=O)c2cncc(-c3ccoc3)c2)cc1C(=O)NCCCN | 92
* COc1ccc(NC(=O)c2cc(C(F)(F)F)n(C)n2)cc1C(=O)NCCCN | 89
* COc1ccc(NC(=O)c2cn3ccsc3n2)cc1C(=O)NCCCN | 92

====

# reported h-poly-IgG Bound (%); entries follow
Tested on: human poly-IgG (h-poly-IgG)
Test protocol: Microtiter plate chromatography of resins, human poly-IgG (bound, yield)
Assay type: binding
Method: Resins were assessed in packed mode by microtiter plate chromatography. For each column, approximately 30 μl of resin were transferred to a 384-well filter plate and sealed with appropriate top frits. Columns were equilibrated with 6.7 column volumes (cv) of phosphate buffered saline (0.15 M NaCl, 20 mM sodium phosphate, pH 7.3; PBS) prior to injection. […] Effluent fractions were collected in 384-well plates and concentrations of protein analyzed by Bradford assay. […]
Readout label: h-poly-IgG Bound (%)

- COc1ccc(NC(=O)c2cc(C)n(C)n2)cc1C(=O)NCCCN: 51
- COc1ccc(NC(=O)c2cc(C(F)(F)F)n(C)n2)cc1C(=O)NCCCN: 78
- COc1ccc(C(=O)Nc2nn(C)c3ccccc23)cc1C(=O)NCCCN: 100
- COc1ccc(NC(=O)c2cncc(C3CC3)c2)cc1C(=O)NCCCN: 75
- COc1ccc(NC(=O)c2cc(-c3cc(C)sc3C)n(C)n2)cc1C(=O)NCCCN: 102
- COc1ccc(NC(=O)c2cc3ccccn3n2)cc1C(=O)NCCCN: 93
- COc1ccc(NC(=O)c2cc(-c3ccco3)[nH]n2)cc1C(=O)NCCCN: 93
- COc1ccc(NC(=O)c2cn(C)c3ccccc23)cc1C(=O)NCCCN: 93
- CCn1nc(C(=O)Nc2ccc(OC)c(C(=O)NCCCN)c2)c2ccccc21: 100
- COc1ccc(NC(=O)c2nn(C)c3ncccc23)cc1C(=O)NCCCN: 73
- COc1ccc(NC(=O)c2cncc(-c3ccco3)c2)cc1C(=O)NCCCN: 76
- COc1ccc(NC(=O)c2cc(-c3cccc(Cl)c3)n(C)n2)cc1C(=O)NCCCN: 100
- COc1ccc(NC(=O)c2nccc3ccccc23)cc1C(=O)NCCCN: 95
- COc1ccc(NC(=O)c2n[nH]c3ccccc23)cc1C(=O)NCCCN: 95
- COc1ccc(NC(=O)c2nn(C)c3ccccc23)cc1C(=O)NCCOCCOCC(=O)NCCOCCOCC(=O)NCCCN: 81
- COc1ccc(NC(=O)c2cc(-c3ccsc3)n(C)n2)cc1C(=O)NCCCN: 100
- COc1ccc(NC(=O)c2onc3ccccc23)cc1C(=O)NCCCN: 95
- C#Cc1cncc(C(=O)Nc2ccc(OC)c(C(=O)NCCCN)c2)c1: 45
- Cn1nc(C(=O)Nc2ccc(O)c(C(=O)NCCCN)c2)cc1-c1ccco1: 74
- COc1ccc(NC(=O)c2cc(-c3cccs3)n(C)n2)cc1C(=O)NCCCN: 94
- COc1ccc(NC(=O)c2cc3ncccn3n2)cc1C(=O)NCCCN: 83
- Cc1ccc(C(=O)NCCCN)cc1NC(=O)c1cc(-c2cccs2)n(C)n1: 72
- COc1ccc(NC(=O)c2cn3ncccc3n2)cc1C(=O)NCCOCCOCC(=O)NCCCC[C@H](NC(=O)COCCOCCNC(=O)c1cc(NC(=O)c2cn3ncccc3n2)ccc1OC)C(=O)NCCCN: 89
- CCOc1ccc(NC(=O)c2cc(-c3ccco3)n(C)n2)cc1C(=O)NCCCN: 95
- COc1ccc(NC(=O)c2cn3cccnc3n2)cc1C(=O)NCCCN: 11
- COc1ccc(NC(=O)c2cc(-c3csc(C)n3)on2)cc1C(=O)NCCCN: 100
- COc1ccc(NC(=O)c2nn(C)c3ccccc23)cc1C(=O)NCCOCCOCC(=O)NCCCN: 95
- COc1ccc(NC(=O)c2c[nH]c3ccccc23)cc1C(=O)NCCCN: 75
- COc1ccc(NC(=O)c2cc(-c3cccn3C)n(C)n2)cc1C(=O)NCCCN: 96
- Cn1nc(C(=O)Nc2nc(C(=O)NCCCN)cs2)cc1-c1cccs1: 49
- COc1ccc(NC(=O)c2nn(CC(O)CO)c3ccccc23)cc1C(=O)NCCCN (racemic): 98
- COc1ccc(NC(=O)c2nc3cccnc3[nH]2)cc1C(=O)NCCCN: 85
- COc1ccc(NC(=O)c2nnc(-c3ccco3)o2)cc1C(=O)NCCCN: 98
- COc1ccc(NC(=O)c2cc(-c3ccccc3)no2)cc1C(=O)NCCCN: 89
- Cn1nc(C(=O)Nc2ccc(C(=O)NCCCN)cc2)cc1-c1ccco1: 68

====

Tested on: Palivizumab
Test protocol: Microtiter plate chromatography of resins, Palivizumab (bound, yield)
Format: binding, humanized
Note: every record was labeled by where its Palivizumab Yield (%) sits among Low (below 60%), Medium (60% to below 90%), High (90% or more)

- COc1ccc(NC(=O)c2nn(C)c3ccccc23)cc1C(=O)NCCCN [Ligand L27]: High
- COc1ccc(NC(=O)c2cncc(-c3ccoc3)c2)cc1C(=O)NCCCN [Ligand L22]: Low
- COc1ccc(NC(=O)c2cn3ncccc3n2)cc1C(=O)NCCCN [Ligand L48]: Low
- COc1ccc(NC(=O)c2nc3ccccc3[nH]2)cc1C(=O)NCCCN [Ligand L47]: Medium
- COc1ccc(NC(=O)c2onc3ccccc23)cc1C(=O)NCCCN [Ligand L31]: High
- COc1ccc(NC(=O)c2cncc(-c3ccc(C(F)(F)F)cc3)c2)cc1C(=O)NCCCN [Ligand L12]: Low
- COc1ccc(NC(=O)c2cn3ncccc3n2)cc1C(=O)NCCOCCOCC(=O)NCCCC[C@H](NC(=O)COCCOCCNC(=O)c1cc(NC(=O)c2cn3ncccc3n2)ccc1OC)C(=O)NCCCN [Ligand L62]: Medium
- COc1ccc(NC(=O)c2cc(C)n(C)n2)cc1C(=O)NCCCN [Ligand L33]: Low
- COc1ccc(NC(=O)c2cn3ccccc3n2)cc1C(=O)NCCCN [Ligand L57]: Low
- COc1ccc(NC(=O)c2cncc(C3CC3)c2)cc1C(=O)NCCCN [Ligand L23]: Low
- COc1ccc(NC(=O)c2nc3cccnc3[nH]2)cc1C(=O)NCCCN [Ligand L41]: Medium
- COc1ccc(NC(=O)c2cc(-c3ccco3)on2)cc1C(=O)NCCCN [Ligand L45]: High
- COc1ccc(NC(=O)c2cc3ncccn3n2)cc1C(=O)NCCCN [Ligand L56]: Medium
- COc1ccc(NC(=O)c2cc(-c3cccs3)n(C)n2)cc1C(=O)NCCCN [Ligand L6]: High
- COc1ccc(NC(=O)c2cncc(-c3ccco3)c2)cc1C(=O)NCCCN [Ligand L13]: Low
- Cc1c(NC(=O)c2cc(-c3cccs3)n(C)n2)cccc1C(=O)NCCCN [Ligand L9]: Low
- COc1ccc(NC(=O)c2cc(-c3cc(C)sc3C)n(C)n2)cc1C(=O)NCCCN [Ligand L3]: High
- COc1ccc(C(=O)Nc2nn(C)c3ccccc23)cc1C(=O)NCCCN [Ligand L39]: High
- COc1ccc(NC(=O)c2cc(-c3csc(C)n3)on2)cc1C(=O)NCCCN [Ligand L42]: High
- COc1ccc(NC(=O)c2cn3ccsc3n2)cc1C(=O)NCCCN [Ligand L37]: Medium
- COc1ccc(NC(=O)c2n[nH]c3ccccc23)cc1C(=O)NCCCN [Ligand L36]: High
- COc1ccc(NC(=O)c2cc(-c3cccc(Cl)c3)n(C)n2)cc1C(=O)NCCCN [Ligand L7]: High
- COc1ccc(NC(=O)c2cc(C(F)(F)F)n(C)n2)cc1C(=O)NCCCN [Ligand L34]: Medium
- Cc1ccc(C(=O)NCCCN)cc1NC(=O)c1cc(-c2cccs2)n(C)n1 [Ligand L10]: Medium
- Cn1nc(C(=O)Nc2nc(C(=O)NCCCN)cs2)cc1-c1cccs1 [Ligand L19]: Low
- COc1ccc(NC(=O)c2occ3ccccc23)cc1C(=O)NCCCN [Ligand L32]: High
- COc1ccc(NC(=O)c2nn(CCO)c3ccccc23)cc1C(=O)NCCCN [Ligand L59]: Medium
- COc1ccc(NC(=O)c2nc(-c3ccco3)no2)cc1C(=O)NCCCN [Ligand L55]: High
- C#Cc1cncc(C(=O)Nc2ccc(OC)c(C(=O)NCCCN)c2)c1 [Ligand L24]: Low
- COc1ccc(NC(=O)c2cncc(-c3cccs3)c2)cc1C(=O)NCCCN [Ligand L5]: Medium
- COc1ccc(NC(=O)c2nn(CC(O)CO)c3ccccc23)cc1C(=O)NCCCN (racemic) [Ligand L40]: Medium
- CCn1nc(C(=O)Nc2ccc(OC)c(C(=O)NCCCN)c2)c2ccccc21 [Ligand L38]: Medium
- Cn1nc(C(=O)Nc2ccc(C(=O)NCCCN)cc2)cc1-c1ccco1 [Ligand L18]: Low
